Ref: patent US10633338B2

Biological target: androgen receptor (AR) (Homo sapiens, UniProt P10275, T878A)
Construct: stably transfected eGFP-expressing LNCaP human prostate cancer cells (LN-ARR2PB-eGFP) containing an androgen responsive probasin-derived promoter; endogenous in cells; host or cells: LNCaP (LN-ARR2PB-eGFP)
Sequence (P10275 1-920 T878A): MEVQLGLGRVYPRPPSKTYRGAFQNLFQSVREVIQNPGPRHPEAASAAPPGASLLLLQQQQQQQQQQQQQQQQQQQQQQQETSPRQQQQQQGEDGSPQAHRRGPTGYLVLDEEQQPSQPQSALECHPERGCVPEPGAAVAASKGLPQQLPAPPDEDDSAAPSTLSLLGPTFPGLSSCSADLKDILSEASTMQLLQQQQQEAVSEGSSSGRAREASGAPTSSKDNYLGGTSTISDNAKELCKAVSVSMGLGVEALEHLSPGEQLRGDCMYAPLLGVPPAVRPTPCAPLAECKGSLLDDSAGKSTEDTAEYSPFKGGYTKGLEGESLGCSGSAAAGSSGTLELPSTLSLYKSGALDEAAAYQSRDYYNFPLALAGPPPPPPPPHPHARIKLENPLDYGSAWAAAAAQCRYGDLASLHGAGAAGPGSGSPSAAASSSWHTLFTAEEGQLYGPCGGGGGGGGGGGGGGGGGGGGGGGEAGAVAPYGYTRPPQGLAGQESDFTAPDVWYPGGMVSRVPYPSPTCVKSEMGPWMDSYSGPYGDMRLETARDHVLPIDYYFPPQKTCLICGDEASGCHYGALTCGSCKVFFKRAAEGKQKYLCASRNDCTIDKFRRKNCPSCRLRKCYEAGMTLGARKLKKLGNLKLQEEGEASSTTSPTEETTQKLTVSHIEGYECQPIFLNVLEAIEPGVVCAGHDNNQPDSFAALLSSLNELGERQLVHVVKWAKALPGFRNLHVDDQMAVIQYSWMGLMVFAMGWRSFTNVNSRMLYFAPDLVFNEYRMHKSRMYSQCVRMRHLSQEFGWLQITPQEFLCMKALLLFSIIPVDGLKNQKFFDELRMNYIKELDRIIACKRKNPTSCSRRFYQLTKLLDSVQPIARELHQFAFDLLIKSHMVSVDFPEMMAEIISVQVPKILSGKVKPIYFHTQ
Test: eGFP cellular AR transcription assay
Assay type: cell-based
Settings: LN-ARR2PBeGFP LNCaP cells, 0.1 nM R1881, 3 days incubation; read-out: eGFP IC50
pIC50: −log10 of the molar value.
Everything with pIC50 lower than 6 is No; everything else, including exactly 6, is Yes.

Recorded results for 3 compounds are shown here.
>  <Compound>
C(=C(c1ccccc1)c1ccccc1)c1c[nH]c2ccccc12

>  <Study target>
androgen receptor (AR) (Homo sapiens, UniProt P10275, T878A)

>  <Classification>
No

$$$$
>  <Compound>
Clc1cccc(/N=N/c2c[nH]c3ccccc23)c1

>  <Study target>
androgen receptor (AR) (Homo sapiens, UniProt P10275, T878A)

>  <Classification>
Yes

$$$$
>  <Compound>
CC1(C)c2cc(Br)ccc2NC1c1c[nH]c2ccccc12 (centres unmarked)

>  <Study target>
androgen receptor (AR) (Homo sapiens, UniProt P10275, T878A)

>  <Classification>
No

$$$$

Problem: State whether the measured pIC50 reaches 6, counting equality as reaching it, for Fc1cc2c(-c3ccc4cccnc4c3)c[nH]c2c(F)c1F
Solution: Yes

Problem: # repeat for CC1(C)C(c2c[nH]c3c(O)cccc23)=Nc2ccccc21
Solution: Yes
